Provenance of the data: paper PMC6599891

Test target: EmrE (Escherichia coli, UniProt P23895, S64V)
Assay: biochemical
Measure: Kd (µM)
Use µM as the unit, but write only the number.

C[P+](c1ccccc1)(c1ccccc1)c1ccccc1 = 60

Below: the item to evaluate.
Task item: Which Kd is reported with EmrE (Escherichia coli, UniProt P23895, S64V) for this entry: CC[P+](c1ccccc1)(c1ccccc1)c1ccccc1 ?
Reply: 11.4

----------
Test target: EmrE (Escherichia coli, UniProt P23895, M21G)
Assay: biochemical
Measure: pKd
// returns pKd (minus log10 of molar concentration), number only

Task item: Which pKd is reported with EmrE (Escherichia coli, UniProt P23895, M21G) for this entry: c1ccc([P+](c2ccccc2)(c2ccccc2)c2ccccc2)cc1 [TPP^+] ?
Reply: 8.40

----------
Test target: EmrE (Escherichia coli, UniProt P23895, I101G)
Assay: biochemical
Measure: Kd (nM)
Use nM as the unit, but write only the number.

Task item: Which Kd is reported with EmrE (Escherichia coli, UniProt P23895, I101G) for this entry: c1ccc([P+](c2ccccc2)(c2ccccc2)c2ccccc2)cc1 ?
Reply: 2.6

----------
Test target: EmrE (Escherichia coli, UniProt P23895, N102A)
Assay: biochemical
Measure: Kd

Task item: Consider the compound c1ccc([P+](c2ccccc2)(c2ccccc2)c2ccccc2)cc1 and give its measured Kd.
Reply: 2.3 nM
